Hi there, I'd appreciate the recorded cytotoxicity at 70.5 h for every entry that follows.
- method notes: Human HepG2 cell viability assay in 384 well format
- Assay type: toxicity, cell-based
- Set-up: dose 125 nL, time 70.5 hour; concentration not given beside the values
- assay conditions: HepG2 cells, read-out: Inhibition
Number in %, nothing else.

Incoming: Query cytotoxicity at 70.5 h for CCC1c2cccn2CCN1S(=O)(=O)N1CCOCC1 (stereo unspecified)
Outgoing: 11.2

Incoming: Query cytotoxicity at 70.5 h for COCC(=O)N1C[C@H]2CCC[C@@]2(COC)C1
Outgoing: -5.02

Incoming: Query cytotoxicity at 70.5 h for Cc1nc(C)n(CC2CCCN2CCCOc2ccc(F)cc2)n1 (stereo unspecified)
Outgoing: 6.79

Incoming: Query cytotoxicity at 70.5 h for CCn1ccc(-c2cc(C(=O)O)n3nc(C)c(Cl)c3n2)n1
Outgoing: -9.11

Incoming: Query cytotoxicity at 70.5 h for CC1CN(CC(=O)NCc2cccs2)CCN1c1nccs1 (stereo unspecified)
Outgoing: -10.4

Incoming: Query cytotoxicity at 70.5 h for Cc1nc(Cn2cc(I)cc(C)c2=O)oc1C
Outgoing: 2.15

----------
- method notes: Human HepG2 cell viability assay in 384 well format
- Assay type: toxicity, cell-based
- Parameters: dose 125 nL, time 70.5 hour; concentration not given beside the values
- assay conditions: HepG2 cells, read-out: Inhibition
Hi there, I'd appreciate the recorded cytotoxicity at 70.5 h for every entry that follows.
Number in %, nothing else.

Incoming: Query cytotoxicity at 70.5 h for Fc1ccccc1CN1C[C@H](OCC2CCOCC2)[C@H]2OCCC[C@H]21
Outgoing: 17.2

Incoming: Query cytotoxicity at 70.5 h for COc1cccc2ncn(C(C)Cn3cccn3)c(=O)c12 (stereo unspecified)
Outgoing: -3.99

Incoming: Query cytotoxicity at 70.5 h for O=C(CCC1CC1)N1C[C@@H](CN2CCCC2)[C@@H](CO)C1
Outgoing: -13.2

Incoming: Query cytotoxicity at 70.5 h for CCc1c(C)nc(C)nc1N1C[C@@H](CN(C)CCN(C)C)[C@@H](CO)C1
Outgoing: -9.98

Incoming: Query cytotoxicity at 70.5 h for O=C(NCCN1CCOCC1)N(Cc1ccoc1)C1CCCCC1
Outgoing: 1.39

Incoming: Query cytotoxicity at 70.5 h for CCc1nnsc1C(=O)NCCC1CN(C(C)C)CCO1 (stereo unspecified)
Outgoing: -7.17

----------
Hi there, I'd appreciate the recorded cytotoxicity at 70.5 h for every entry that follows.
- method notes: Human HepG2 cell viability assay in 384 well format
- Assay type: toxicity, cell-based
- Set-up: dose 125 nL, time 70.5 hour; concentration not given beside the values
- assay conditions: HepG2 cells, read-out: Inhibition
Please state the number and follow it with the unit.

Incoming: Query cytotoxicity at 70.5 h for Cc1ccc(C(C(=O)N2CC(c3ccccn3)C2)N(C)C)cc1 (stereo unspecified)
Outgoing: 13%

Incoming: Query cytotoxicity at 70.5 h for CCOc1ccc2nc(NC(=O)c3c(C(=O)O)cnn3C)sc2c1
Outgoing: -14.2%

Incoming: Query cytotoxicity at 70.5 h for CC(=O)N1CCC2(CC1)CN(C)C(=O)C[C@H]2C(F)(F)F
Outgoing: -7.04%

Incoming: Query cytotoxicity at 70.5 h for CCc1ccc(CN2CCc3ncnc(N4CCOCC4)c3CC2)o1
Outgoing: -1.4%

Incoming: Query cytotoxicity at 70.5 h for CCCN1CC2(CCN(c3cc(C4CC4)ncn3)CC2)CC1C(=O)O (stereo unspecified)
Outgoing: -4.45%

Incoming: Query cytotoxicity at 70.5 h for Cc1ccc(C(=O)N(C)CC(=O)NCC(F)(F)F)cn1
Outgoing: 0.05%

Incoming: Query cytotoxicity at 70.5 h for CS(=O)(=O)C1=C(O)C(=O)N(c2ccccc2)C1c1ccccc1 (stereo unspecified)
Outgoing: -4.58%

Incoming: Query cytotoxicity at 70.5 h for CS(=O)(=O)N[C@@H]1CN(Cc2ccoc2)C[C@@H]2CCCO[C@@H]21
Outgoing: -8.39%

Incoming: Query cytotoxicity at 70.5 h for CCC1CCCCN1S(=O)(=O)c1c(N)noc1C (stereo unspecified)
Outgoing: -2.36%

Incoming: Query cytotoxicity at 70.5 h for O=C(c1cccc2c1OCCO2)N1CCCC1c1noc(C2CC2)n1 (stereo unspecified)
Outgoing: -2.14%

Incoming: Query cytotoxicity at 70.5 h for O=C(c1ccccc1F)N1CC(c2nc(-c3ccc[nH]c3=O)no2)C1
Outgoing: -2.53%

----------
- method notes: Human HepG2 cell viability assay in 384 well format
- Type: toxicity, cell-based
- Design: dose 125 nL, time 70.5 hour; concentration not given beside the values
- assay conditions: HepG2 cells, read-out: Inhibition
observed property: cytotoxicity at 70.5 h (%)
Number in %, nothing else.

Incoming: Query cytotoxicity at 70.5 h for CN(C)CCn1ccnc1C1CCN(C(=O)CCc2ccncc2)CC1
Outgoing: -5.61

Incoming: Query cytotoxicity at 70.5 h for CC(C)N1CCCC(C(=O)NCCc2csc(-c3ccncc3)n2)C1 (stereo unspecified)
Outgoing: 22

Incoming: Query cytotoxicity at 70.5 h for COCCC(=O)N1CCC2(CN(Cc3cccc(Cl)c3)C2)C1
Outgoing: 33.3

Incoming: Query cytotoxicity at 70.5 h for Cc1nc(C)n(CC2CCCN(c3ncnc4[nH]ccc34)C2)n1 (stereo unspecified)
Outgoing: 3.27

Incoming: Query cytotoxicity at 70.5 h for Cc1nccn1CC1CCCN(S(=O)(=O)c2cnn(C)c2)C1 (stereo unspecified)
Outgoing: -2.81

Incoming: Query cytotoxicity at 70.5 h for O=C(c1cccnc1SCc1ccccc1)N1CC[C@@H](O)C1
Outgoing: 29.6

Incoming: Query cytotoxicity at 70.5 h for CC(C)=CCN1CCN(C(=O)c2snnc2C)[C@H]2CS(=O)(=O)C[C@H]21
Outgoing: -9.09

Incoming: Query cytotoxicity at 70.5 h for CCc1c(C)sc2ncnc(N3CCN(C4CCOCC4)CC3)c12
Outgoing: -11.1

Incoming: Query cytotoxicity at 70.5 h for CCCn1cc(C(=O)N2CCCC(c3nccn3CCOC)C2)c(C)n1 (stereo unspecified)
Outgoing: 1.39

Incoming: Query cytotoxicity at 70.5 h for CN(C(=O)c1ccc(C2CCCO2)s1)C1CCS(=O)(=O)CC1 (stereo unspecified)
Outgoing: 2.73

Incoming: Query cytotoxicity at 70.5 h for O=C1CCN(C(=O)NCc2ccccc2Oc2ccccc2)CCN1
Outgoing: 2.87

----------
- method notes: Human HepG2 cell viability assay in 384 well format
- Type: toxicity, cell-based
- Parameters: dose 125 nL, time 70.5 hour; concentration not given beside the values
- assay conditions: HepG2 cells, read-out: Inhibition
observed property: cytotoxicity at 70.5 h
Please state the number and follow it with the unit.

Incoming: Query cytotoxicity at 70.5 h for Cc1cc(CN(C)C(=O)CNS(=O)(=O)c2cccs2)no1
Outgoing: -6.5%

Incoming: Query cytotoxicity at 70.5 h for Cc1nnc(CN2CCCC2c2ccc3c(c2)OCCCO3)n1C (centres undefined)
Outgoing: -5.99%

Incoming: Query cytotoxicity at 70.5 h for CCN(CC)CCN1CC[C@H]2OCC[C@@]2(C(=O)N2CCOCC2)C1
Outgoing: -14.8%

Incoming: Query cytotoxicity at 70.5 h for O=S(=O)(c1ccc(F)c(F)c1)n1cc(Cl)cn1
Outgoing: -6.91%

Incoming: Query cytotoxicity at 70.5 h for Cc1cnn(CC2CCCCN2C(=O)c2c(C)noc2C)c1 (centres undefined)
Outgoing: -0.615%

Incoming: Query cytotoxicity at 70.5 h for CN(C)CCCN(Cc1cnn(C)c1)Cc1ccco1
Outgoing: -2.57%

Incoming: Query cytotoxicity at 70.5 h for Cc1cc(O)c(OCC(=O)/N=c2\[nH]c(C)c(C)s2)cn1
Outgoing: 5.16%

Incoming: Query cytotoxicity at 70.5 h for O=C(O)C1(Oc2ccccc2F)CCN(C/C=C/c2ccco2)CC1
Outgoing: -7.74%

Incoming: Query cytotoxicity at 70.5 h for O=C(c1cccc2[nH]ncc12)N1CCCC1c1noc(C2CC2)n1 (centres undefined)
Outgoing: -18.3%

Incoming: Query cytotoxicity at 70.5 h for COC(C)c1nc(CN2CCCNCC2)cs1 (centres undefined)
Outgoing: -3.19%

Incoming: Query cytotoxicity at 70.5 h for CC(C)(C)OC(=O)N[C@@H]1C[C@@H](O)CN(C(=O)c2cccc(F)c2)C[C@H]1O
Outgoing: -3.14%

Incoming: Query cytotoxicity at 70.5 h for COc1ccc(COCC(O)CNC(=O)c2ccc(C#N)cc2)cc1 (centres undefined)
Outgoing: -5.39%

Incoming: Query cytotoxicity at 70.5 h for CC(=O)N1CCC(c2nn(C)c3nccnc23)C1 (centres undefined)
Outgoing: -5.3%

Incoming: Query cytotoxicity at 70.5 h for CN(Cc1noc2c1CCCC2)C(=O)CN1C(=O)COc2ccccc21
Outgoing: -6.93%

Incoming: Query cytotoxicity at 70.5 h for O[C@H]1CCN(CCCOc2ccccc2F)C[C@@]12CCCO2
Outgoing: 18.1%

Incoming: Query cytotoxicity at 70.5 h for Cc1nc(CN2CCCN(C(=O)c3ccn(C)c(=O)c3)CC2)cs1
Outgoing: 30.7%

Incoming: Query cytotoxicity at 70.5 h for NC(=O)Cc1csc(NC(=O)C2CSCCC(=O)N2)n1 (centres undefined)
Outgoing: 1.67%

Incoming: Query cytotoxicity at 70.5 h for Cc1cc(NC(=O)CN2CCOC(Cn3cccn3)C2)n(C)n1 (centres undefined)
Outgoing: 8.66%

Incoming: Query cytotoxicity at 70.5 h for CC(C)n1cc(S(=O)(=O)N2CCSCC2)cn1
Outgoing: -4.27%

Incoming: Query cytotoxicity at 70.5 h for CN1CCc2c(CNC(=O)c3nccn3C)cncc2C1
Outgoing: -0.526%

Incoming: Query cytotoxicity at 70.5 h for CSCCCN1C[C@H](NC(=O)c2cc(C3CC3)on2)[C@@H](C2CC2)C1
Outgoing: -7.58%

Incoming: Query cytotoxicity at 70.5 h for Cn1nc2c(cc1=O)CN(Cc1coc(-c3cccc(F)c3)n1)CC2
Outgoing: -2.83%

Incoming: Query cytotoxicity at 70.5 h for CN1CCN(Cc2cnc3n2CCN(C(=O)c2ccccn2)C3)CC1
Outgoing: -12.3%

Incoming: Query cytotoxicity at 70.5 h for O=C(NC1CCc2c(ccc(=O)n2CC2CC2)C1)c1cscn1 (centres undefined)
Outgoing: 18.1%
